# test target: mouse TMEM16A mutant K603Q (Mus musculus, UniProt Q8BHY3, K603Q)
# Construct: expressed in transfected cells; host or cells: HEK293T
# protocol description: Inside-out patch recording of 1PBC block, mutant K603Q
# Format: cell-based
# condition notes: -80 mV; 4 µM Ca2+

- structure as smiles: "N#Cc1c(C(F)(F)F)cc(O)n2c1nc1ccccc12"
  uom: "µM"
  IC50: 193

----------
# test target: mouse TMEM16A mutant K603Q (Mus musculus, UniProt Q8BHY3, K603Q)
# Construct: expressed in transfected cells; host or cells: HEK293T
# protocol description: Inside-out patch recording of 1PBC block, mutant K603Q
# Type: cell-based
# condition notes: 60 mV; 4 µM Ca2+

- compound: "N#Cc1c(C(F)(F)F)cc(O)n2c1nc1ccccc12 [1PBC]"
  test target: "mouse TMEM16A mutant K603Q (Mus musculus, UniProt Q8BHY3, K603Q)"
  uom: "µM"
  IC50: 196

----------
# test target: mouse TMEM16A mutant Y514A (Mus musculus, UniProt Q8BHY3, Y514A)
# Construct: expressed in transfected cells; host or cells: HEK293T
# protocol description: Inside-out patch recording of 1PBC block, mutant Y514A
# Format: cell-based
# condition notes: -100 mV; 2 µM Ca2+
# Method: HEK293T cells (ATCC CRL-1573) were maintained in Dulbecco’s modified Eagle’s medium (DMEM; Sigma-Aldrich) supplemented with 10 U ml^−1 penicillin, 0.1 mg ml^−1 streptomycin (Sigma-Aldrich), 2 mM L-glutamine (Sigma-Aldrich), and 10% FBS (Sigma-Aldrich) in a humidified atmosphere containing 5% CO2 at 37 °C. […]

- compound: "N#Cc1c(C(F)(F)F)cc(O)n2c1nc1ccccc12 [1PBC]"
  IC50: "58 µM"

----------
# test target: mouse TMEM16A mutant T539A (Mus musculus, UniProt Q8BHY3, T539A)
# Construct: expressed in transfected cells; host or cells: HEK293T
# Sequence (Q8BHY3 1-960 T539A): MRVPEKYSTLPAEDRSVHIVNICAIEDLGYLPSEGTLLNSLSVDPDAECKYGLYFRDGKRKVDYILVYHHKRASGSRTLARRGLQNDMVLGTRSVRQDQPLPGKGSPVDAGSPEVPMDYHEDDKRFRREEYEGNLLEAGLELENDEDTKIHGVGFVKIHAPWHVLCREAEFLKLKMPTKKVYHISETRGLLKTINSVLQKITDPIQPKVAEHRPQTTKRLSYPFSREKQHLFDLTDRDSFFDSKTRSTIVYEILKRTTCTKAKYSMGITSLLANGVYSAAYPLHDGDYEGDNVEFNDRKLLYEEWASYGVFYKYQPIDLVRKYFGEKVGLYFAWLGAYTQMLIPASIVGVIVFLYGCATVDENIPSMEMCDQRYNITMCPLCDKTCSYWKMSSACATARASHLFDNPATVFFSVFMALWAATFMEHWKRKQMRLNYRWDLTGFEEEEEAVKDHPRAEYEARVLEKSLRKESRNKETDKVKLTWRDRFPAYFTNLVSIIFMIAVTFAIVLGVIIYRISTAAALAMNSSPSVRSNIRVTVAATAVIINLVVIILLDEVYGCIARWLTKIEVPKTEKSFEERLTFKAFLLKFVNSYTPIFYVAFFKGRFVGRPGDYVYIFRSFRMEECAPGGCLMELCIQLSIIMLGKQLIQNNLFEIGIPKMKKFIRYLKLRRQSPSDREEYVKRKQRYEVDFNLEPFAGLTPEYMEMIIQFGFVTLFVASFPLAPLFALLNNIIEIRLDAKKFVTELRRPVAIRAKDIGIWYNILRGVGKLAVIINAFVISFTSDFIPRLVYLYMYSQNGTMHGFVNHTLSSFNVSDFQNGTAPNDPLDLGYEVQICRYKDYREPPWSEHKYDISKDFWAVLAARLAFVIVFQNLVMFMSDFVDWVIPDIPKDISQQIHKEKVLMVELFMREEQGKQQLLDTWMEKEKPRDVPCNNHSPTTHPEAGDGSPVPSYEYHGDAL
# protocol description: Inside-out patch recording of 1PBC block, mutant T539A
# Format: cell-based
# condition notes: T539A; V 120 mV

- compound: "N#Cc1c(C(F)(F)F)cc(O)n2c1nc1ccccc12 [1PBC]"
  IC50 [µM]: 8.83

----------
# test target: mouse TMEM16A mutant P595A (Mus musculus, UniProt Q8BHY3, P595A)
# Construct: expressed in transfected cells; host or cells: HEK293T
# protocol description: Inside-out patch recording of 1PBC block, mutant P595A
# Type: cell-based
# condition notes: -120 mV; 2 µM Ca2+
# Protocol: HEK293T cells (ATCC CRL-1573) were maintained in Dulbecco’s modified Eagle’s medium (DMEM; Sigma-Aldrich) supplemented with 10 U ml^−1 penicillin, 0.1 mg ml^−1 streptomycin (Sigma-Aldrich), 2 mM L-glutamine (Sigma-Aldrich), and 10% FBS (Sigma-Aldrich) in a humidified atmosphere containing 5% CO2 at 37 °C. […]

- structure as smiles: "N#Cc1c(C(F)(F)F)cc(O)n2c1nc1ccccc12"
  uom: "µM"
  IC50: 9.33

----------
# test target: mouse TMEM16A mutant T518A (Mus musculus, UniProt Q8BHY3, T518A)
# Construct: expressed in transfected cells; host or cells: HEK293T
# Sequence (Q8BHY3 1-960 T518A): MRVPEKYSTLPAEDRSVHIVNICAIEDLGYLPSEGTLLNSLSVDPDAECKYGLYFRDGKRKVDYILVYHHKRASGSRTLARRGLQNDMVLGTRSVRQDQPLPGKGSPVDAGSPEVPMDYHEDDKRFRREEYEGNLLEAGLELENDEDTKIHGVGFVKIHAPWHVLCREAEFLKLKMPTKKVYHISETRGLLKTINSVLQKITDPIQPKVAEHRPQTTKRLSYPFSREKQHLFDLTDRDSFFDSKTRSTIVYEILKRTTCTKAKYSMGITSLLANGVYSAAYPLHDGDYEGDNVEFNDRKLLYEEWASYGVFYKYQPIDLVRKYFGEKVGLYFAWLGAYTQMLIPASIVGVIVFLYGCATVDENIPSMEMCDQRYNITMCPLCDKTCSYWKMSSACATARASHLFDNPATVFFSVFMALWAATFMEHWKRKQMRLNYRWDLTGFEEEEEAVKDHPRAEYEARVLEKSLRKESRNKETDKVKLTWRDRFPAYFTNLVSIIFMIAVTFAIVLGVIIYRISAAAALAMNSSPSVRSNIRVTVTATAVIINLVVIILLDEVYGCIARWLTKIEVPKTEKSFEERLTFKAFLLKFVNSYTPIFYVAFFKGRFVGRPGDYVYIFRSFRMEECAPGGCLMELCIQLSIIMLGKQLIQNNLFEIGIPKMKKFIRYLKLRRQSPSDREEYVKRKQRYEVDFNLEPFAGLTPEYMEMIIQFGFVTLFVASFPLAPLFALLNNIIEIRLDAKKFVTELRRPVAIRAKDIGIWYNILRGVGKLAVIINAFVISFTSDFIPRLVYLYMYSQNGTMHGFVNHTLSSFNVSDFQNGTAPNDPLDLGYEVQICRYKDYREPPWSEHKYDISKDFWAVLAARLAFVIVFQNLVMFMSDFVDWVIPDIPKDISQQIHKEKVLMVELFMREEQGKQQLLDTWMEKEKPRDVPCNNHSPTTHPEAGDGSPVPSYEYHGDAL
# protocol description: Inside-out patch recording of 1PBC block, mutant T518A
# Assay type: cell-based
# condition notes: T518A; V 100 mV
measurement name: IC50 (nM)

- molecule: "N#Cc1c(C(F)(F)F)cc(O)n2c1nc1ccccc12 [1PBC]"
  test target: "mouse TMEM16A mutant T518A (Mus musculus, UniProt Q8BHY3, T518A)"
  measurement name: "IC50"
  uom: "nM"
  experimental value: 2550

----------
# test target: mouse TMEM16A mutant Y514A (Mus musculus, UniProt Q8BHY3, Y514A)
# Construct: expressed in transfected cells; host or cells: HEK293T
# protocol description: Inside-out patch recording of 1PBC block, mutant Y514A
# Type: cell-based
# condition notes: Y514A; V 100 mV
pIC50: −log10 of the molar value.

- structure as smiles: "N#Cc1c(C(F)(F)F)cc(O)n2c1nc1ccccc12"
  pIC50: 4.90

----------
# test target: mouse TMEM16A mutant I640A (Mus musculus, UniProt Q8BHY3, I640A)
# Construct: expressed in transfected cells; host or cells: HEK293T
# Sequence (Q8BHY3 1-960 I640A): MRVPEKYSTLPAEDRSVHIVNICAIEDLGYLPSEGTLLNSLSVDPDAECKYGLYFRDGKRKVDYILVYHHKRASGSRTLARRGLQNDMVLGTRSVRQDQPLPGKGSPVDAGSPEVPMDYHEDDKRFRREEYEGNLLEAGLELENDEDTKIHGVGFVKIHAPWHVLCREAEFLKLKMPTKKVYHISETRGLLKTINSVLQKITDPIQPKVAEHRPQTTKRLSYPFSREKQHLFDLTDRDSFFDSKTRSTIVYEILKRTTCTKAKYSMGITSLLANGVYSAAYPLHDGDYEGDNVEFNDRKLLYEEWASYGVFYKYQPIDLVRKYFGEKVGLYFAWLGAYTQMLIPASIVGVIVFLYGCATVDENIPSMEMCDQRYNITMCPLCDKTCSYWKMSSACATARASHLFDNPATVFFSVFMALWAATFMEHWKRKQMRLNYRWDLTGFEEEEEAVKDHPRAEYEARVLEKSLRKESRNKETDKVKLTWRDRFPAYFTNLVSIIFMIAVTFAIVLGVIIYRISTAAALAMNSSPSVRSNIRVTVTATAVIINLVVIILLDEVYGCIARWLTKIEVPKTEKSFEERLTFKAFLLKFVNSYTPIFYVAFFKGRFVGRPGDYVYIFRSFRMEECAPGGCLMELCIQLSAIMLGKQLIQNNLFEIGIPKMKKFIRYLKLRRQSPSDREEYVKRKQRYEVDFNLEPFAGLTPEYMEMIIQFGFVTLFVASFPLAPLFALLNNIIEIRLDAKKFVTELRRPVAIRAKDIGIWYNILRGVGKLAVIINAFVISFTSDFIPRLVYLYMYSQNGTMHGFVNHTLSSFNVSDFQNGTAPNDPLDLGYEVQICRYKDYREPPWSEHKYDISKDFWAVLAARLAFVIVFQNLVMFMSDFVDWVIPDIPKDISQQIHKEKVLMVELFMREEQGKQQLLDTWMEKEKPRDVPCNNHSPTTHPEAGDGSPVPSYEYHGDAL
# protocol description: Inside-out patch recording of 1PBC block, mutant I640A
# Type: cell-based
# condition notes: I640A; V 120 mV
pIC50: −log10 of the molar value.

- compound: "N#Cc1c(C(F)(F)F)cc(O)n2c1nc1ccccc12 [1PBC]"
  pIC50: 4.60
